- test-summary: Oral bioavailability from crystalline suspension in dog (plasma PK, LC/MS/MS)
- Format: in vivo, beagle dogs
- conditions-used: male, beagle, dog, plasma, po, 3 mg/kg, PO 3 mg/kg suspension, dog plasma, individual dogs; read-out: Tmax
readout: Tmax (h)
Numbers only, in h.

Lookup: Can you share its Tmax? I mean this compound: CNC(=O)c1c(O)c2ncc(Cc3ccc(F)cc3)c3c2n(c1=O)C[C@](C)(c1nnc(C)o1)O3 [Compound (Ia)]
Found: 1

* * *

- test-summary: Oral bioavailability from crystalline suspension in dog (plasma PK, LC/MS/MS)
- Type: in vivo, beagle dogs
- conditions-used: male, beagle, dog, plasma, po, 4 mg/kg, PO 4 mg/kg suspension, dog plasma, mean n = 3; read-out: Tmax
readout: Tmax (h)
Answers are plain numbers, in h.

Lookup: Can you share its Tmax? I mean this compound: CNC(=O)c1c(O)c2ncc(Cc3ccc(F)cc3)c3c2n(c1=O)C[C@H](C(=O)NC)O3 [Comparator Compound, reference compound]
Found: 2.67
